B1: library; a variant is named by its letters at N, in order (parent)
chain: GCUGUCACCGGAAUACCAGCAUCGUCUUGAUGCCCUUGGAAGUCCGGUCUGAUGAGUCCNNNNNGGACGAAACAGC

variants of: B1; test: FACS-Seq fitted mean relative fluorescence mCherry/BFP with ligand (log10 relative fluorescence); ligand concentration (+) FACS-Seq: 1 mM; higher = higher reporter protein expression; details: HEK293T, ligand present: yes
Please note: 1 (yes) applies when FACS-Seq fitted mean (log10) is 0.8 or greater, and 0 (no) applies otherwise.

| Change | Assigned Category |
| --- | --- |
| UCGAA | 1 (yes) |
| ACAGC | 1 (yes) |
| AUCGA | 1 (yes) |
| UAUAA | 0 (no) |
| UAGGA | 0 (no) |
| ACCAA | 1 (yes) |
| AUACU | 0 (no) |
